# credit: paper PMC9062482

ASSAYED_SYSTEM: T1, SETMAR R432A (Homo sapiens, UniProt Q53H47 14-684, R445A)
T1 sequence: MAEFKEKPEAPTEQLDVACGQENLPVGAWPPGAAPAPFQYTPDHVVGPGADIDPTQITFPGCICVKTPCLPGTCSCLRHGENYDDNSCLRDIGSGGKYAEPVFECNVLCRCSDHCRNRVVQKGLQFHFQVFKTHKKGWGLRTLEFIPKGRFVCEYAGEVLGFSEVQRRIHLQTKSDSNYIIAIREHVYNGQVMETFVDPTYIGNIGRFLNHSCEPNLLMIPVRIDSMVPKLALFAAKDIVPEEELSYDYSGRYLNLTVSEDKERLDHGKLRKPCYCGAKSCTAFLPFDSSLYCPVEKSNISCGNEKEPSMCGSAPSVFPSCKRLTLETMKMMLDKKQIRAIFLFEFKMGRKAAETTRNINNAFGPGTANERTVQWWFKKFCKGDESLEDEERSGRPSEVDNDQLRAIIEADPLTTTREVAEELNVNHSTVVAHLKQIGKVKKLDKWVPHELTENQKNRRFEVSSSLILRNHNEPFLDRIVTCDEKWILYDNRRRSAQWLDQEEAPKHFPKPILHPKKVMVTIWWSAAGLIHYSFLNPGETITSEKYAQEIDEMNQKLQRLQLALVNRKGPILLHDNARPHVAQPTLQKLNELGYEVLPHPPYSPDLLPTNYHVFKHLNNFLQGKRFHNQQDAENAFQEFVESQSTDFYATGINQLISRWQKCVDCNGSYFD
TEST_NAME: fluorescence anisotropy; 10 nM probe; FA and competition: 50 mM Hepes pH 7.0, 150 mM NaCl, 1 mM DTT; temperature not stated. Crystals: 50 mM Hepes pH 7.5, 150 mM NaCl, 1 mM DTT; 0.1 M Mg formate, 15% PEG3350, 20 C
MEASUREMENT_CONTEXT: protein: recombinant; chain copies: 2; label: 5' rhodamine (C6 amino) on strand 2; blunt
EXPERIMENTAL_ENDPOINT: pKd
Give bare numbers, as −log10 of the molar value.

Documented pKd of rhodamine Hsmar1 TIR probe (dsDNA) DNA 1: TTAGGTTGGTGCAAAAGTAATTGCGGTT DNA 2: AACCGCAATTACTTTTGCACCAACCTAA : 6.52
